# target.or.test.system: AKT3 Catalytic Domain (Homo sapiens)
# Construct: AKT3 (Q9Y243); CD; His-tag; made in house; host or cells: Escherichia coli
# Sequence (Q9Y243 122-479): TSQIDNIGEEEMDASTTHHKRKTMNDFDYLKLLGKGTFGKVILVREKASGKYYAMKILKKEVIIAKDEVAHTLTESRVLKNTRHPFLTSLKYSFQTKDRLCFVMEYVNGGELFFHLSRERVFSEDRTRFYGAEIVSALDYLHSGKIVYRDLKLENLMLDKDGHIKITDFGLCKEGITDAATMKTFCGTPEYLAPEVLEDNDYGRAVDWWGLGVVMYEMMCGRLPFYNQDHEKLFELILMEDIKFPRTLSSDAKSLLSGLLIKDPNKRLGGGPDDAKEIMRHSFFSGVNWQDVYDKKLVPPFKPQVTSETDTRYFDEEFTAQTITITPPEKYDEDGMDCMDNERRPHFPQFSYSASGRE
# assay.name: Differential Scanning Fluorimetry (DSF) Tm shift
# Format: binding
# measurement.conditions: 2 µM protein, 10 µM inhibitor, average of 3 experiments, each in duplicate
I'd appreciate it if you could supply Melting temperature (Tm) shift values for the items below.
Numbers only, in degrees Celcius.

| compound | parameter.measured | unit.info | recorded.value |
| --- | --- | --- | --- |
| O=C(Nc1cccc(Nc2nccc(Nc3cccc(C(F)(F)F)c3)n2)c1)C1CC1 | Melting temperature (Tm) shift | degrees Celcius | 0.1 |

I would be grateful if you could provide Melting temperature (Tm) shift for each of the following entries.
1. O=C1Nc2ccc3ncsc3c2/C1=C/c1cnc[nH]1
2. Cc1cc(C=C2C(=O)C=CC2=O)cc(C)c1O
3. CC(=O)O/N=C1/C(=C2/C(=O)Nc3cc(Br)ccc32)Nc2ccccc21
4. CC(C)n1cnc2c(Nc3cccc(Cl)c3)nc(NCCO)nc21
5. COc1ccc2c(c1)c(C1=C(c3c[nH]c4ccccc34)C(=O)NC1=O)cn2CCCN(C)C
6. CC(C)c1nn(-c2c(Cl)cccc2Cl)c2nc(Cc3ccc(OCCO)cc3)[nH]c(=O)c12
7. N#CC(c1ccnc(NCCc2cccnc2)n1)c1nc2ccccc2s1 (centres unmarked)

Result block:
0.3
4.5
0.1
0.0
0.0
0.0
0.0

I would be grateful if you could provide Melting temperature (Tm) shift for each of the following entries.
1. O=C1NC(=O)c2c1c1c3ccccc3n3c1c1c2c2ccccc2n1C1CCC3O1
2. COc1cc(Nc2ncc3ccn(-c4cccc(CCC#N)c4)c3n2)cc(OC)c1OC
3. COc1ccc2c(c1)c1c3c(c4c5ccccc5n(C)c4c1n2CC(O)CN(C)C)C(=O)NC3=O.Cl (centres unmarked) [Gö 7874, Hydrochloride]

Result block:
1. 16.8
2. 0.0
3. 0.2
